Values from ChEMBL document CHEMBL1153221

Target under test: UniProtKB P35462
Sequence (P35462 whole entry): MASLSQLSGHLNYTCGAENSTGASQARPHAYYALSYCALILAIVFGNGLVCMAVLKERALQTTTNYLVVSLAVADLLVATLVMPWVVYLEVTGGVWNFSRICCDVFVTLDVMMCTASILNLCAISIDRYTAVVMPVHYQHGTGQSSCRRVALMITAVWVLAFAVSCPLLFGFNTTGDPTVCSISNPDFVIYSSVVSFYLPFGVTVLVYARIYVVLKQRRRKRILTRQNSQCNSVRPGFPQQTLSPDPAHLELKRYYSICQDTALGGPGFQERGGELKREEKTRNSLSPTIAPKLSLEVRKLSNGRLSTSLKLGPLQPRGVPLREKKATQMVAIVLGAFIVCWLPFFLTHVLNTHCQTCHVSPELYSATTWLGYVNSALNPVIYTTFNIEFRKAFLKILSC
Measurement notes: Antagonist activity at human D3 receptor expressed in CHO cells co-expressing G0 by [35S]GTPgammaS binding assay
Quantity kind: Ki

// known answers, use as guide
[
  {
    "Smiles code": "Cn1c(CN2CCN(c3ccc(C(F)(F)F)cc3)CC2)nc2ccccc21",
    "Ki": "> 10 µM"
  },
  {
    "Smiles code": "Cn1c(CN2CCN(c3nc4ccccc4s3)CC2)nc2ccccc21",
    "Ki": "> 10 µM"
  },
  {
    "Smiles code": "Cn1c(CN2CCC(c3ccccc3)CC2)nc2ccccc21",
    "Ki": "0.126 µM"
  },
  {
    "Smiles code": "Cn1c(CN2CCN(c3ccc(Cl)cc3)CC2)nc2ccccc21",
    "Ki": "> 10 µM"
  }
]

Task: What does the record list as Ki for Cn1c(CN2CCC(c3cccc(Cl)c3)CC2)nc2ccccc21 ?
Result: 1.58 µM

Task: What does the record list as Ki for Cn1c(CN2CCN(c3ccc(C(F)(F)F)cn3)CC2)nc2ccccc21 ?
Result: > 10 µM
